Tested on: c-Src
Assay Procedure: phosphorylation enrichment, bacterial display (enrichment ratio); higher = better substrate or ligand; peptides without Tyr show the background
Parameter Measured: phosphorylation enrichment
Could you respond with only the numeric value?

q: Given IVAREYFSDAD [CAMK2A_Y106_E109D_YF] , state its recorded phosphorylation enrichment.
a: 0.438

q: Given LTYHMYADPNI [SOS1_Y618_F623I] , state its recorded phosphorylation enrichment.
a: 9.95

q: Given VQVAYYTVMMN [SPATA17_Y84_M86V] , state its recorded phosphorylation enrichment.
a: 2.03

q: Given ISHVAYRVLGK [TRRAP_Y892] , state its recorded phosphorylation enrichment.
a: 0.416

q: Given HLRAGYIIPLQ [GAA_Y822] , state its recorded phosphorylation enrichment.
a: 0.327

====

Target Of Assay: Jak2 (UniProt O60674)
Sequence (O60674 whole entry, looked up): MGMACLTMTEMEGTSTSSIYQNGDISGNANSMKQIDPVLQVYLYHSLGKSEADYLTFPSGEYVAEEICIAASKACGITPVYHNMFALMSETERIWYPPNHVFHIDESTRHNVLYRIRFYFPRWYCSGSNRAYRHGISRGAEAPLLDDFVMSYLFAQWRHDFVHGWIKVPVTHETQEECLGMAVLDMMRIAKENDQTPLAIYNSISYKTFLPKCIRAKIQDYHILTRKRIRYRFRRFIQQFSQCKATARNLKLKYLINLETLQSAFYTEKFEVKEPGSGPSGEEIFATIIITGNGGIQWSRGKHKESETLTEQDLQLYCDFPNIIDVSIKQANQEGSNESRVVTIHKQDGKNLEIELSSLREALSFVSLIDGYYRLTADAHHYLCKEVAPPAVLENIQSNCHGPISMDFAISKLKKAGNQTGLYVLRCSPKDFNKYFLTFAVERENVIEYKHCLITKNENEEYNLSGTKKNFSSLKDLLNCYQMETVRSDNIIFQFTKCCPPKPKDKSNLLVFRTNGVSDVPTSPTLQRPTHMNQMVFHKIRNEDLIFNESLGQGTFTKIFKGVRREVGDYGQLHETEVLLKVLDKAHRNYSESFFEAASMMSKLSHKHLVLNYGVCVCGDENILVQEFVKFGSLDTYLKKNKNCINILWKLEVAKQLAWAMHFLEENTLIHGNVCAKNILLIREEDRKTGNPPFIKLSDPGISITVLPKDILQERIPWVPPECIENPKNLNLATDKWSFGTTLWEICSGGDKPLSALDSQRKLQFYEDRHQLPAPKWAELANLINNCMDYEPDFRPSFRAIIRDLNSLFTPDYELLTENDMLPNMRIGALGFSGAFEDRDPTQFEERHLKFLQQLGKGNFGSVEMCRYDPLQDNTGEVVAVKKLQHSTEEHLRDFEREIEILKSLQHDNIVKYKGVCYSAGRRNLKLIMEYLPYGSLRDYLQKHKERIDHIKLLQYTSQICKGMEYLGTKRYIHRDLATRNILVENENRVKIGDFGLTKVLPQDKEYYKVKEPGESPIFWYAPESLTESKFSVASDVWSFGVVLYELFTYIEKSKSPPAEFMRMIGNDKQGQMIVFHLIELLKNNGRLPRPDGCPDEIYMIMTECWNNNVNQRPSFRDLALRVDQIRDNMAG
Assay Procedure: phosphorylation enrichment, bacterial display (enrichment ratio); higher = better substrate or ligand; peptides without Tyr show the background
Listed here: items and their measured phosphorylation enrichment.

Ordered Residues: AEFGLYGAMVR [VSX2_Y222_YF]
phosphorylation enrichment: 0.868
--
Ordered Residues: GDNNIYVTKII [DLG1_Y349_S347N]
phosphorylation enrichment: 0.942
--
Ordered Residues: SKGFAYVHFDS [PABPC5_Y149_YF]
phosphorylation enrichment: 0.832
--
Ordered Residues: CTNELYMMMRD [FGFR1_Y730]
phosphorylation enrichment: 1.35
--
Ordered Residues: PLQSEYSSIST [ITGB4_Y1760_T1764S]
phosphorylation enrichment: 0.822
--
Ordered Residues: DNEALYDTCFR [TUBB2B_Y208_I210T]
phosphorylation enrichment: 1.23
--
Ordered Residues: IGGHAYGDQFR [IDH1_Y135_R132G_YF]
phosphorylation enrichment: 0.499
--
Ordered Residues: RLLCEYQELMN [KRT75_Y434_R432C]
phosphorylation enrichment: 1.33
--
Ordered Residues: KIITDYFVDMK [MPP4_Y566_V562I_YF]
phosphorylation enrichment: 1.14
--
Ordered Residues: MSNFAYVKREV [SCN1A_Y1694]
phosphorylation enrichment: 0.651

q: Given KWLEQYTQAIE [LSP1_Y234_Q229K] , state its recorded phosphorylation enrichment.
a: 0.915

q: Given DAPVVYLGSFG [PRAG1_Y132_R137G] , state its recorded phosphorylation enrichment.
a: 0.776

q: Given RPASVYTKRCS [CPT2_Y508] , state its recorded phosphorylation enrichment.
a: 0.444

q: Given MKKMHYVDPDH [ST3GAL5_Y99] , state its recorded phosphorylation enrichment.
a: 0.392

q: Given KSEFAYEIFDK [MYOM2_Y1024_L1022F] , state its recorded phosphorylation enrichment.
a: 1.01

q: Given GENTVYAQVFN [LY9_Y603_M602V] , state its recorded phosphorylation enrichment.
a: 0.718

q: Given RRAVKYLQMVG [AVPR2_Y117_C112R] , state its recorded phosphorylation enrichment.
a: 0.887

q: Given WAMLAYNRSKL [WWOX_Y293] , state its recorded phosphorylation enrichment.
a: 1.02

====

Test system: Fer (mouse)
Assay Procedure: phosphorylation enrichment, bacterial display (enrichment ratio); higher = better substrate or ligand; peptides without Tyr show the background
Class assignment keyed on phosphorylation enrichment, ranges low (below 0.5), medium (0.5 to below 0.6), high (0.6 or more)

Ordered Residues: TFTVSYLPDMS [FLNC_Y1602_YF]
Assigned Label: low
//
Ordered Residues: IVAREYFSDAD [CAMK2A_Y106_E109D_YF]
Assigned Label: low
//
Ordered Residues: FSLIHYAGIVV [MYH7_Y582_D587V]
Assigned Label: high

q: Which category does the recorded phosphorylation enrichment put WRVISYHVVVW [ATP13A2_Y50_G49S] in?
a: medium

q: Which category does the recorded phosphorylation enrichment put ADYPDYKYRPR [SOX11_Y116] in?
a: low

q: Which category does the recorded phosphorylation enrichment put EPNSRYTFKLE [USH2A_Y3745_YF] in?
a: low

q: Which category does the recorded phosphorylation enrichment put KLFFHYDPKLC [INSR_Y457_N458D] in?
a: low

q: Which category does the recorded phosphorylation enrichment put NIEPIYLNMLL [ATR_Y317_V316I] in?
a: high

q: Which category does the recorded phosphorylation enrichment put AFSTVYKGLWI [EGFR_Y727_G724S] in?
a: high

q: Which category does the recorded phosphorylation enrichment put AEFGLYGAMVR [VSX2_Y222_YF] in?
a: high

q: Which category does the recorded phosphorylation enrichment put AEQDWYHGAIP [FER_Y461] in?
a: medium

q: Which category does the recorded phosphorylation enrichment put SEEVNYATLTF [CLEC12B_Y7_T6N] in?
a: high

q: Which category does the recorded phosphorylation enrichment put HSHTRYERNIE [F2_Y434_R431H] in?
a: high

q: Which category does the recorded phosphorylation enrichment put SGSFRYGSSFE [SELE_Y390_C394F] in?
a: low

q: Which category does the recorded phosphorylation enrichment put NSNSDYVDVLP [SH2D1B_Y127] in?
a: high

q: Which category does the recorded phosphorylation enrichment put ECKASCPGKIT [PRSS3_Y232_Y232C] in?
a: low

q: Which category does the recorded phosphorylation enrichment put HTVEDYQAIVD [CCT7_Y263] in?
a: high

q: Which category does the recorded phosphorylation enrichment put LCRYGYANTSE [SI_Y1233] in?
a: high

q: Which category does the recorded phosphorylation enrichment put SCTFTCLLGDR [ETHE1_Y38_Y38C] in?
a: low

q: Which category does the recorded phosphorylation enrichment put EYYENYIEELK [PARP4_Y218_F215Y] in?
a: high

q: Which category does the recorded phosphorylation enrichment put QAPPVYLDVLG [NTRK1_Y791] in?
a: high

q: Which category does the recorded phosphorylation enrichment put RLLCEYQELMN [KRT75_Y434_R432C] in?
a: high

====

Target Of Assay: Hck (UniProt P08631)
Sequence (P08631 whole entry, looked up): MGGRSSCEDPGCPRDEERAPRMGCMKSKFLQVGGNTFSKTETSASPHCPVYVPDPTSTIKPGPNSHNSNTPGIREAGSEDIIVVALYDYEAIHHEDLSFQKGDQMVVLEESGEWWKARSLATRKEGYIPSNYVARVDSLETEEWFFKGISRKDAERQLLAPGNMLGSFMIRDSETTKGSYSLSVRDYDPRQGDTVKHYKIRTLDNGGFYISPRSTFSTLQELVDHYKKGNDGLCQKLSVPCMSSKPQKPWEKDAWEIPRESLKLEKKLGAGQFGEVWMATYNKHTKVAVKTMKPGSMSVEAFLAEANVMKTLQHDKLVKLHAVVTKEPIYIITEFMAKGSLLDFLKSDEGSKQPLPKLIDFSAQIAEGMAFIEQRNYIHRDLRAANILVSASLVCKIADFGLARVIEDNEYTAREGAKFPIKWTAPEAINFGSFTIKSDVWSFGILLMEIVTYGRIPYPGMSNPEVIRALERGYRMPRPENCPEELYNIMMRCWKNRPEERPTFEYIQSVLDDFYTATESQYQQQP
Assay Procedure: phosphorylation enrichment, bacterial display (enrichment ratio); higher = better substrate or ligand; peptides without Tyr show the background
Listed here: items and their measured phosphorylation enrichment.
Could you respond with only the numeric value?

Ordered Residues: HIKHNYECLVF [XRCC5_Y416_YF]
phosphorylation enrichment: 0.821

Ordered Residues: IVAREYYSKAD [CAMK2B_Y107_E110K]
phosphorylation enrichment: 0.507

Ordered Residues: LRFDVYGGENE [STOX1_Y610_E608D_YF]
phosphorylation enrichment: 0.498

Here's the next entry for you.
q: Given LVTCSYLLGNS [LMNA_Y646_R644C] , state its recorded phosphorylation enrichment.
a: 0.803

====

System: AncSZ
Assay Procedure: phosphorylation enrichment, bacterial display (enrichment ratio); higher = better substrate or ligand; peptides without Tyr show the background
Parameter Measured: phosphorylation enrichment
Could you respond with only the numeric value?

Solved cases (5 shown):
Ordered Residues: ALAAPYVLYPG [CEFIP_Y1332]
phosphorylation enrichment: 0.769
//
Ordered Residues: VGTKWYMAPEV [ACVRL1_Y375_R374W]
phosphorylation enrichment: 0.899
//
Ordered Residues: KLIETYFSKNY [PLP1_Y50]
phosphorylation enrichment: 0.701
//
Ordered Residues: LTDRGYSFVTT [ACTA1_Y200_E197D]
phosphorylation enrichment: 1.38
//
Ordered Residues: MGSYNYLGFAR [SPTLC2_Y178]
phosphorylation enrichment: 0.831

q: Given SMVVPYEPPEV [TP53_Y220_V216M] , state its recorded phosphorylation enrichment.
a: 1.11

q: Given PLQKIYNFNVL [SLC4A1_Y553_T552I_YF] , state its recorded phosphorylation enrichment.
a: 0.985

q: Given RHPLDYLRQFP [NARS2_Y138_E137D_YF] , state its recorded phosphorylation enrichment.
a: 0.719

q: Given SAAAIYTVRHP [PMP22_Y117] , state its recorded phosphorylation enrichment.
a: 0.615

q: Given TLKDVYDDGKF [RPS6KA3_Y483_YF] , state its recorded phosphorylation enrichment.
a: 0.988

====

Target Of Assay: c-Src SH2;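 note: peptide library displayed on the E. coli surface as eCPX fusions, selected cells deep-sequenced, score is each peptide's frequency after selection divided by its frequency in the input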
Assay Procedure: SH2 binding enrichment of the phosphorylated peptide, bacterial display (enrichment ratio); higher = better substrate or ligand; peptides without Tyr show the background
Parameter Measured: SH2 binding enrichment

Ordered Residues: YQLPYYNTVPS [BMPR1A_Y458_M460T]
Parameter Measured: SH2 binding enrichment
Value Measured: 8.81
--
Ordered Residues: ATDLAYYLVRK [ASL_Y375]
Parameter Measured: SH2 binding enrichment
Value Measured: 0.798
--
Ordered Residues: IGGHAYGDQFR [IDH1_Y135_R132G_YF]
Parameter Measured: SH2 binding enrichment
Value Measured: 0.571
--
Ordered Residues: EIKLAYRRRPP [GRIN2B_Y1109_E1106K]
Parameter Measured: SH2 binding enrichment
Value Measured: 0.362
--
Ordered Residues: EKLIQYCQSKS [AKR1B1_Y199_G204S]
Parameter Measured: SH2 binding enrichment
Value Measured: 0.609
--
Ordered Residues: CTTIHYSYMCN [TP53_Y234_N235S]
Parameter Measured: SH2 binding enrichment
Value Measured: 5.17
--
Ordered Residues: RQGKDYIGAIP [KDR_Y951_V952I]
Parameter Measured: SH2 binding enrichment
Value Measured: 0.428
--
Ordered Residues: EPFEVYRIVPE [IRF8_Y110_K108E_YF]
Parameter Measured: SH2 binding enrichment
Value Measured: 0.521
--
Ordered Residues: GCVSKYSGVFS [TUBGCP6_Y1624]
Parameter Measured: SH2 binding enrichment
Value Measured: 0.596
--
Ordered Residues: MVTSGYKAKTI [EFR3A_Y447]
Parameter Measured: SH2 binding enrichment
Value Measured: 0.44

q: Given TLKVGYKEKQR [EPHA3_Y659_T660K] , state its recorded SH2 binding enrichment.
a: 1.02

q: Given IYLADYRIMEG [ALOX12B_Y318] , state its recorded SH2 binding enrichment.
a: 0.719

q: Given ILGRTYFVNHE [NEDD4_Y627_YF] , state its recorded SH2 binding enrichment.
a: 0.463

q: Given KVKPIYFHTRG [AR_Y916_Q920R] , state its recorded SH2 binding enrichment.
a: 1.84

q: Given EIRTQYEVMAS [GFAP_Y242_A244V] , state its recorded SH2 binding enrichment.
a: 6.97

q: Given LDYNEYVRDLN [HPRT1_Y198_F199V] , state its recorded SH2 binding enrichment.
a: 0.757

q: Given PVDGEYFTLQI [TP53_Y327_L323V] , state its recorded SH2 binding enrichment.
a: 0.512

q: Given SIKDKYVTALF [KCNH2_Y611_YF] , state its recorded SH2 binding enrichment.
a: 0.433
